The values you see were collected from PubChem BioAssay (EPA / NIEHS).

Assay: BSK_BE3C_SRB: Viability Assessment in the BioMAP Diversity Plus: BE3C Assay (AID 2283028);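 also: measured 24 h after chemical dosing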
Details: primary human bronchial epithelial cells
Activity calls are given as the source filed them. The calls were made as follows: active = hit-call score of the fitted dose curve at least 0.9, where 1 is the maximum; inactive = score below 0.9.
Hi there, use one of these labels in your reply, thanks! 1 (active), -1 (inactive)

Input line: Record lookup: outcome of this test for CSC(=O)c1cccc2nnsc12 ?
Output line: -1

Input line: Please share the test call associated with COc1c(Cl)ccc(Cl)c1C(=O)O .
Output line: -1

Input line: Lab log entry: CCC(O)=C1C(=O)CC(C(=O)O)CC1=O (centres undefined) — outcome as called in the assay?
Output line: -1

Input line: Hey, what did the test say about CCCCCCC(C)OC(=O)COc1nc(F)c(Cl)c(N)c1Cl (centres undefined) ?
Output line: -1

Input line: Recorded test outcome, item COC(=O)c1cccc(C)c1S(=O)(=O)NC(=O)Nc1nc(OCC(F)(F)F)nc(N(C)C)n1
Output line: -1

Input line: What call does the record list for CCOC(=O)C(C)Oc1ccc(Oc2nc3ccc(Cl)cc3o2)cc1 (centres undefined) ?
Output line: -1

Input line: Per the assay record, what outcome was assigned to C[C@]12C[C@H](O)[C@H]3[C@@H](CCC4=CC(=O)CC[C@@]43C)[C@@H]1CC[C@@H]2C(=O)CO ?
Output line: -1

Input line: State the result this test recorded for Cc1nn(C)c(Oc2ccccc2)c1C=NOCc1ccc(C(=O)OC(C)(C)C)cc1 .
Output line: 1

Input line: Check the results log: what was the call for CCOC(=O)c1ccc(O)cc1 ?
Output line: -1

Input line: Recorded call for CC(=O)[C@H]1CC[C@H]2[C@@H]3CCC4=CC(=O)CC[C@]4(C)[C@H]3CC[C@]12C ?
Output line: -1

Input line: Please let me know the test result on file for CCCN(CCC)C(=O)SCC .
Output line: -1

Input line: Recorded test outcome, item CCCCOCCOCCOCc1cc2c(cc1CCC)OCO2
Output line: -1

Input line: Recorded test call requested for S=C([S-])NCCNC(=S)[S-].[Mn+2]
Output line: -1

Input line: Outcome logged for CCC(C)OC(=O)N1CCCCC1CCO (centres undefined) in this assay:
Output line: -1

Input line: Short answer needed: outcome of this test for CN(C)C(=O)Nc1ccc(Cl)c(Cl)c1 ?
Output line: -1

Input line: In this assay, the call recorded for CC(=O)S[C@@H]1CC2=CC(=O)CC[C@]2(C)[C@H]2CC[C@@]3(C)[C@@H](CC[C@@]34CCC(=O)O4)[C@H]12 was what?
Output line: -1

Input line: Per the assay record, what outcome was assigned to CCN(CC)C(=O)c1cccc(C)c1 ?
Output line: -1

Input line: Would you mind telling me which call this test gave c1ccc(Nc2ccccc2)cc1 ?
Output line: -1

Input line: Which outcome was entered for the molecule COC(=O)c1ccccc1S(=O)(=O)NC(=O)Nc1nc(OC(F)F)cc(OC(F)F)n1 in this test?
Output line: -1

Input line: // return assay outcome for C#CCOC(=O)[C@@H](C)Oc1ccc(Oc2ncc(Cl)cc2F)cc1
Output line: -1

Input line: Which result was noted for this molecule in the test: CCSC(=O)N(CC(C)C)CC(C)C
Output line: -1

Input line: // outcome(item) with item = c1ccc2[nH]c(-c3cscn3)nc2c1
Output line: -1

Input line: Could you check what this test reported for CCN(Cc1c(F)cccc1Cl)c1c([N+](=O)[O-])cc(C(F)(F)F)cc1[N+](=O)[O-] ?
Output line: 1

Input line: GET /call?item= COC(=O)c1ccc(I)cc1S(=O)(=O)NC(=O)Nc1nc(C)nc(OC)n1 returns the recorded outcome of this test.
Output line: -1
